// endpoint Ki / system Cruzipain (Trypanosoma cruzi, UniProt P25779)
PROPERTY MEASURED: Ki (µM)

Ki lookup needed for N#CCNC(=O)CN(Cc1ccccc1)C(=O)c1ccccc1 , thanks.
6.31

Ki lookup needed for N#CCNC(=O)CN(Cc1ccccc1)C(=O)c1ccc(-c2ccccc2)cc1 , thanks.
3.16

Ki lookup needed for N#CC1(NC(=O)CN(Cc2ccccc2)C(=O)c2ccccc2)CC1 , thanks.
7.94

Ki lookup needed for Cn1nc(C(C)(C)C)cc1C(=O)N(CC(=O)NCC#N)Cc1cccc(Cl)c1 , thanks.
0.158

Ki lookup needed for Cn1nc(C(C)(C)C)cc1C(=O)N(CC(=O)NC1(C#N)CC1)Cc1ccccc1 , thanks.
6.31

1: CC(C)(C#N)NC(=O)CN(Cc1ccccc1)C(=O)c1ccccc1
2: N#CC1(NC(=O)CN(Cc2ccccc2)C(=O)c2ccc(-c3ccccc3)cc2)CC1
3: COc1ccc(-c2ccc(C(=O)N(CC(=O)NC3(C#N)CC3)Cc3ccccc3)cc2)cc1
4: N#CC1(NC(=O)CN(Cc2ccccc2)C(=O)Cc2ccccc2)CC1
Task for the reader: rank each entry by its Ki, from the minimum upward. Write the labels out in the order the request specifies.
2, 4, 1, 3
(2: 0.251 µM, 4: 2.51 µM, 1: 6.31 µM, 3: 10 µM)

I: COc1ccc(-c2ccc(C(=O)N(CC(=O)NCC#N)Cc3ccccc3)cc2)cc1
II: N#CC1(NC(=O)[C@H](Cc2ccccc2)NC(=O)c2ccccc2)CC1
Hi, I'm comparing two records. Which one has the lower Ki, I or II ? Please indicate the selected item by its label.
II
(II: 0.2 µM, I: 5.01 µM)

---

Biological target: Cathepsin K (Homo sapiens)
Sequence (P43235 whole entry): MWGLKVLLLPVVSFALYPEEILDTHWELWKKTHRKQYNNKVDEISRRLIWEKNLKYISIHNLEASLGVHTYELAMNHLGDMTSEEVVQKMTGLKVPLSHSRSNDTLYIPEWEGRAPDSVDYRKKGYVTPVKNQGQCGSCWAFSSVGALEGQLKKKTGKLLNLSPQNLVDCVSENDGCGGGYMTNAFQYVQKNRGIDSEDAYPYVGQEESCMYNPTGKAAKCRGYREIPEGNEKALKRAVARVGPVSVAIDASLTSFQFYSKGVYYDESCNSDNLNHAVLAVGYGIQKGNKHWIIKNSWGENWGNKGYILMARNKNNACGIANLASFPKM
Test: Inhibition of recombinant human liver CatK at 10 uM using Z-FR-AMC as substrate by fluorescence assay relative to control
PROPERTY MEASURED: inhibition (%)

Find the measured inhibition: item Cn1nc(C(C)(C)C)cc1C(=O)N(CC(=O)NC1(C#N)CC1)Cc1ccccc1 , target or system Cathepsin K (Homo sapiens).
54

Find the measured inhibition: item N#CCNC(=O)CN(Cc1ccccc1)S(=O)(=O)c1cccc(Cl)c1 , target or system Cathepsin K (Homo sapiens).
68

Find the measured inhibition: item N#CC1(NC(=O)CN(Cc2ccccc2)C(=O)Cc2ccccc2)CC1 , target or system Cathepsin K (Homo sapiens).
58

a: Cn1nc(C(C)(C)C)cc1C(=O)N(CC(=O)NCC#N)Cc1ccccc1
b: N#CCNC(=O)CN(Cc1ccccc1)C(=O)c1ccc(-c2ccccc2)cc1
Return label of the item with the larger inhibition. Candidates: a , b . Please indicate the selected item by its label.
b
(b: 86%, a: 58%)

---

Target: Cathepsin K (Homo sapiens)
Test: Inhibition of recombinant human liver CatK using Z-FR-AMC as substrate by fluorescence assay
PROPERTY MEASURED: Ki (nM)

Worked cases, Ki given:
Ki lookup needed for N#CC1(NC(=O)CN(Cc2ccccc2)C(=O)c2ccccc2)CC1 , thanks.
398

Ki lookup needed for COc1ccc(-c2ccc(C(=O)N(CC(=O)NCC#N)Cc3ccccc3)cc2)cc1 , thanks.
2510

Ki lookup needed for CC(C)(C#N)NC(=O)CN(Cc1ccccc1)C(=O)c1ccccc1 , thanks.
251

a: COc1ccc(-c2ccc(C(=O)N(CC(=O)NC3(C#N)CC3)Cc3ccccc3)cc2)cc1
b: Cn1nc(C(C)(C)C)cc1C(=O)N(CC(=O)N[C@H](C#N)Cc1ccccc1)Cc1ccccc1
Return label of the item with the larger Ki. Candidates: a , b . Please indicate the selected item by its label.
a
(a: 10000 nM, b: 316 nM)

Provenance of the data: ChEMBL document CHEMBL4811270
